Target: HIV-1 envelope (Env) of virus DU172.17 (HIV-1)
Assay: cell-based or functional assay
READOUT: IC50 of viral neutralization (Env.IMC.LucR virus, TZM-BL reporter cells) (µg/mL)
The reply should be a number in µg/mL, with the unit left off.

Exam item: For the binder shown here, NVS49-L2A1 (antibody, V domains shown) VH: HVQLVQSGGGVKKIGAAVRISCEVTGYKFMDQLINWVRQAPGQGLEWMGWMNPTYGQVNYSWRFEGRVTMTRDMDTETAFMELRGLRVDDTAVYYCARGPSGENYPFHYWGQGVRVVVSS VL: ASALTQPASMSASPGQSVTISCSGTRHIISAWFQQYPGKPPKLIIFDDDKRPSGVPSRFSASRPGDTASLTISNVQPEDEATYICNTYEFFGGGTRLTVL , give the reported IC50 of viral neutralization (Env.IMC.LucR virus, TZM-BL reporter cells).
Marked response: 0.128

Exam item: Cool, now L2A1_H58NQ (antibody, V domains shown) VH: HVQLVQSGGGVKKIGAAVRISCEVTGYKFMDQLINWVRQAPGQGLEWMGWMNPTYGQVQYSWRFEGRVTMTRDMDTETAFMELRGLRVDDTAVYYCARGPSGENYPFHYWGQGVRVVVSS VL: ASALTQPASMSASPGQSVTISCSGTRHIISAWFQQYPGKPPKLIIFDDDKRPSGVPSRFSASRPGDTASLTISNVQPEDEATYICNTYEFFGGGTRLTVL
Marked response: 2.27

Exam item: Also L2A1_H58NS (antibody, V domains shown) VH: HVQLVQSGGGVKKIGAAVRISCEVTGYKFMDQLINWVRQAPGQGLEWMGWMNPTYGQVSYSWRFEGRVTMTRDMDTETAFMELRGLRVDDTAVYYCARGPSGENYPFHYWGQGVRVVVSS VL: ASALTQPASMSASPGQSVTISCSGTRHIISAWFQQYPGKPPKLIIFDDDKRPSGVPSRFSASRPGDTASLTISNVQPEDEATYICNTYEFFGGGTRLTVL ?
Marked response: 0.102

Exam item: Another binder to check: L2A1_H58ND (antibody, V domains shown) VH: HVQLVQSGGGVKKIGAAVRISCEVTGYKFMDQLINWVRQAPGQGLEWMGWMNPTYGQVDYSWRFEGRVTMTRDMDTETAFMELRGLRVDDTAVYYCARGPSGENYPFHYWGQGVRVVVSS VL: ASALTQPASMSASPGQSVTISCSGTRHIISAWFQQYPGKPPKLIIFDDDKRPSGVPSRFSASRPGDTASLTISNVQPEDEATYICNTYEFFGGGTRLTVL
Marked response: 20.9

Exam item: Now try L2A1_H60SN (antibody, V domains shown) VH: HVQLVQSGGGVKKIGAAVRISCEVTGYKFMDQLINWVRQAPGQGLEWMGWMNPTYGQVNYNWRFEGRVTMTRDMDTETAFMELRGLRVDDTAVYYCARGPSGENYPFHYWGQGVRVVVSS VL: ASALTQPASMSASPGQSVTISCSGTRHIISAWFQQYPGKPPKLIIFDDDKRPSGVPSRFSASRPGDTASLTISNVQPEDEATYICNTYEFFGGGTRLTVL .
Marked response: 0.044

Exam item: Please give the result for L2A1_H60SA (antibody, V domains shown) VH: HVQLVQSGGGVKKIGAAVRISCEVTGYKFMDQLINWVRQAPGQGLEWMGWMNPTYGQVNYAWRFEGRVTMTRDMDTETAFMELRGLRVDDTAVYYCARGPSGENYPFHYWGQGVRVVVSS VL: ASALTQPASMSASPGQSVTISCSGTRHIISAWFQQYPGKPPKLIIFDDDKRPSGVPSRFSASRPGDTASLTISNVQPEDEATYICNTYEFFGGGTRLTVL too.
Marked response: 0.056

Exam item: Again, but for L2A1_H58NA (antibody, V domains shown) VH: HVQLVQSGGGVKKIGAAVRISCEVTGYKFMDQLINWVRQAPGQGLEWMGWMNPTYGQVAYSWRFEGRVTMTRDMDTETAFMELRGLRVDDTAVYYCARGPSGENYPFHYWGQGVRVVVSS VL: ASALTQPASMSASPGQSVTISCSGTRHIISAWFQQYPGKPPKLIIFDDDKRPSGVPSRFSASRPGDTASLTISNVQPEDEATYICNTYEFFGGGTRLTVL
Marked response: 0.218
